target: chimpanzee Androgen Receptor (AR), AR (gene 747460) (UniProt O97775); assay: NVS_NR_cAR: NovaScreen (NVS) Nuclear Receptor Binding Assay for chimpanzee Androgen Receptor (AR) (AID 2283346);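 note: radioligand displacement from AR measured by scintillation counting in a cell-free assay; a loss of bound radioligand signal versus DMSO counts as binding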
Sequence (O97775 whole entry, looked up): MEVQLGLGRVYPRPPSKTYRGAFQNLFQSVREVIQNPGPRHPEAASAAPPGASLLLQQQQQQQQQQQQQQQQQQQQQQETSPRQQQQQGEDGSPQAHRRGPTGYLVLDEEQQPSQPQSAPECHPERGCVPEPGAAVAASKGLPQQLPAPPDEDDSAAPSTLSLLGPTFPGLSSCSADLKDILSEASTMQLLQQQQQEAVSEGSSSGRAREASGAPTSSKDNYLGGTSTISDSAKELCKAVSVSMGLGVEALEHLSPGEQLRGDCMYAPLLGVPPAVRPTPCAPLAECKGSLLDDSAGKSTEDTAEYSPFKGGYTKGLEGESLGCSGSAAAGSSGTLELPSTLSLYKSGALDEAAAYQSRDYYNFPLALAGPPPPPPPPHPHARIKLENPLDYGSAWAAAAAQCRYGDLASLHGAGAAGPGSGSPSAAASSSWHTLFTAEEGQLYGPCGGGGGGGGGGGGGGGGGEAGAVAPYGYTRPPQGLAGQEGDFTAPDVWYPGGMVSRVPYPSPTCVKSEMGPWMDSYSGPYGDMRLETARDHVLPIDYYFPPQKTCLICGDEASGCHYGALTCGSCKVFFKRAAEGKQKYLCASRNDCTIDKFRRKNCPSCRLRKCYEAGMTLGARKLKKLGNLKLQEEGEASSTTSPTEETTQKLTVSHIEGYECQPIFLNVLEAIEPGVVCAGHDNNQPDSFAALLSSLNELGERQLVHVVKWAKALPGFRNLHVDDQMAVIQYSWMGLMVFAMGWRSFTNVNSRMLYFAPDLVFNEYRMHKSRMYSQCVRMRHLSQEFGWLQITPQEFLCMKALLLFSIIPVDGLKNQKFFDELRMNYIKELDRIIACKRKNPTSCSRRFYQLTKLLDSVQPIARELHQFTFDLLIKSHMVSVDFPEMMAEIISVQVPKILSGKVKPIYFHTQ
Results filed as inconclusive are left out. Calls of active or inactive are those of the source. Rule for the calls: active = hit-call score of the fitted dose curve at least 0.9, where 1 is the maximum; inconclusive = response in the unintended direction; inactive = score below 0.9.
Tick one outcome: active, inactive

Which outcome was entered for the compound CC(C1CC1)C(O)(Cn1cncn1)c1ccc(Cl)cc1 (stereo unspecified) in this test? active

Which outcome was entered for the compound C#CCC1=C(C)C(OC(=O)C2C(C=C(C)C)C2(C)C)CC1=O (stereo unspecified) in this test? inactive

Which outcome was entered for the compound `C[Si](Cn1cncn1)(c1ccc(F)cc1)c1ccc(F)cc1` in this test? active

Which outcome was entered for the compound CCOP(=O)(NC(C)C)Oc1ccc(SC)c(C)c1 (stereo unspecified) in this test? active

Which outcome was entered for the compound `CCC(=O)Nc1ccc(Cl)c(Cl)c1` in this test? active

Which outcome was entered for the compound `COc1ccc(C(=CC(=O)N2CCOCC2)c2ccc(Cl)cc2)cc1OC` in this test? active
